- Tested on: AD38 cells
- Test description: Viability of AD38 cells (Promega CellTiter-Glo)
- Assay type: cell-based
- Condition info: 10 μM compound, 6 days, CellTiter-Glo luminescence normalized to DMSO control (100%)
- Experimental: Example 2: Assay Measuring Activity of Compounds on Viral Production in and on Viability of AD38 Cells AD38 cells were then re-suspended with 10 mL of Treatment Medium and counted. […] At the end of compound treatment period cell viability was assessed using a Promega CellTiter-Glo protocol. […]
Rule: Met for AD38 Viability Normalized Result (cmpd/DMSO %) at 10 μM not less than 90%, Not met for anything less.

# Smiles notation, Class assignment
records = [
    ("CCN1c2ccc(C(=O)NCc3cnc(-c4ccc(C#N)cc4)s3)cc2NC(=O)c2ccccc21", "Not met"),
    ("CN(C)CCCOc1ncc(CNC(=O)c2ccc3c(c2)NC(=O)c2ccccc2S3(=O)=O)s1", "Met"),
    ("CN(C)CCOc1ccc(-c2ncc(CNC(=O)c3ccc4c(c3)NC(=O)c3ccccc3O4)s2)cc1", "Not met"),
    ("CN(C)CCCCOc1ccc(-c2ncc(CNC(=O)c3ccc4c(c3)NC(=O)c3ccccc3S4(=O)=O)s2)cc1", "Not met"),
    ("CC(C)(C)OC(=O)NCCCSc1ccc(-c2ncc(CNC(=O)c3ccc4c(c3)NC(=O)c3ccccc3S4(=O)=O)s2)cc1", "Not met"),
    ("CC(C)N(C)CCCCc1ccc(-c2ncc(CNC(=O)c3ccc4c(c3)NC(=O)c3ccccc3S4(=O)=O)s2)cc1", "Met"),
    ("CN(C)CCCOc1ccc(-c2ncc(CNC(=O)c3ccc4c(c3)NC(=O)c3ccccc3S4(=O)=O)s2)cc1", "Met"),
]

---

Known AD38 Viability Normalized Result (cmpd/DMSO %) at 10 μM of a selection of molecules
- Tested on: AD38 cells
- Test description: Viability of AD38 cells (Promega CellTiter-Glo)
- Type: cell-based
- Condition info: 10 μM compound, 6 days, CellTiter-Glo luminescence normalized to DMSO control (100%)
Readout kind: AD38 Viability Normalized Result (cmpd/DMSO %) at 10 μM

# Smiles notation, Unit name, Numeric value
measured = [
    ("Cn1ccc(-c2ncc(CNC(=O)c3ccc4c(c3)NC(=O)c3ccccc3S4(=O)=O)s2)n1", "%", 100),
    ("O=C(NCc1cnc(Cc2ccc(O)cc2)s1)c1ccc2c(c1)NC(=O)c1ccccc1S2(=O)=O", "%", 96),
    ("COc1ccc(-c2ncc(CNC(=O)c3ccc4c(c3)NC(=O)c3ccccc3O4)s2)cc1C", "%", 97),
    ("CC(=O)NCCCSc1ccc(-c2ncc(CNC(=O)c3ccc4c(c3)NC(=O)c3ccccc3S4(=O)=O)s2)cc1", "%", 99),
]

---

- Tested on: AD38 cells
- Test description: Viability of AD38 cells (Promega CellTiter-Glo)
- Assay type: cell-based
- Condition info: 10 μM compound, 6 days, CellTiter-Glo luminescence normalized to DMSO control (100%)
Readout kind: AD38 Viability Normalized Result (cmpd/DMSO %) at 10 μM

# Smiles notation, System under test, Numeric value
measured = [
    ("CN(C)CCC#Cc1ccc(-c2ncc(CNC(=O)c3ccc4c(c3)NC(=O)c3ccccc3S4(=O)=O)s2)cc1", "AD38 cells", 97),
    ("Cl.O=C(NCc1cnc(-c2ccc(N3CCNCC3)nc2)s1)c1ccc2c(c1)NC(=O)c1ccccc1S2(=O)=O", "AD38 cells", 93),
    ("O=C(NCc1cnc(-c2ccc3[nH]ccc3c2)s1)c1ccc2c(c1)NC(=O)c1ccccc1O2", "AD38 cells", 109),
    ("O=C(NCc1cnc(-c2cnco2)s1)c1ccc2c(c1)NC(=O)c1ccccc1S2(=O)=O", "AD38 cells", 94),
    ("O=C(NCc1cnc(-c2ccc(O)cc2Cl)s1)c1ccc2c(c1)NC(=O)c1ccccc1S2(=O)=O", "AD38 cells", 106),
    ("Cc1c(C(=O)NCc2cnc(-n3cc(C(F)(F)F)cn3)s2)ccc2c1NC(=O)c1ccccc1S2(=O)=O", "AD38 cells", 100),
    ("COc1ncc(-c2ncc(CNC(=O)c3ccc4c(c3)NC(=O)c3ccccc3S4(=O)=O)s2)cn1", "AD38 cells", 111),
]

Sourced from patent US11814376B2
